All figures here come from paper PMC2756456.

- targetOrSystem: myosin light chain kinase (MLCK) (Homo sapiens, UniProt Q15746)
- Sequence (Q15746 whole entry): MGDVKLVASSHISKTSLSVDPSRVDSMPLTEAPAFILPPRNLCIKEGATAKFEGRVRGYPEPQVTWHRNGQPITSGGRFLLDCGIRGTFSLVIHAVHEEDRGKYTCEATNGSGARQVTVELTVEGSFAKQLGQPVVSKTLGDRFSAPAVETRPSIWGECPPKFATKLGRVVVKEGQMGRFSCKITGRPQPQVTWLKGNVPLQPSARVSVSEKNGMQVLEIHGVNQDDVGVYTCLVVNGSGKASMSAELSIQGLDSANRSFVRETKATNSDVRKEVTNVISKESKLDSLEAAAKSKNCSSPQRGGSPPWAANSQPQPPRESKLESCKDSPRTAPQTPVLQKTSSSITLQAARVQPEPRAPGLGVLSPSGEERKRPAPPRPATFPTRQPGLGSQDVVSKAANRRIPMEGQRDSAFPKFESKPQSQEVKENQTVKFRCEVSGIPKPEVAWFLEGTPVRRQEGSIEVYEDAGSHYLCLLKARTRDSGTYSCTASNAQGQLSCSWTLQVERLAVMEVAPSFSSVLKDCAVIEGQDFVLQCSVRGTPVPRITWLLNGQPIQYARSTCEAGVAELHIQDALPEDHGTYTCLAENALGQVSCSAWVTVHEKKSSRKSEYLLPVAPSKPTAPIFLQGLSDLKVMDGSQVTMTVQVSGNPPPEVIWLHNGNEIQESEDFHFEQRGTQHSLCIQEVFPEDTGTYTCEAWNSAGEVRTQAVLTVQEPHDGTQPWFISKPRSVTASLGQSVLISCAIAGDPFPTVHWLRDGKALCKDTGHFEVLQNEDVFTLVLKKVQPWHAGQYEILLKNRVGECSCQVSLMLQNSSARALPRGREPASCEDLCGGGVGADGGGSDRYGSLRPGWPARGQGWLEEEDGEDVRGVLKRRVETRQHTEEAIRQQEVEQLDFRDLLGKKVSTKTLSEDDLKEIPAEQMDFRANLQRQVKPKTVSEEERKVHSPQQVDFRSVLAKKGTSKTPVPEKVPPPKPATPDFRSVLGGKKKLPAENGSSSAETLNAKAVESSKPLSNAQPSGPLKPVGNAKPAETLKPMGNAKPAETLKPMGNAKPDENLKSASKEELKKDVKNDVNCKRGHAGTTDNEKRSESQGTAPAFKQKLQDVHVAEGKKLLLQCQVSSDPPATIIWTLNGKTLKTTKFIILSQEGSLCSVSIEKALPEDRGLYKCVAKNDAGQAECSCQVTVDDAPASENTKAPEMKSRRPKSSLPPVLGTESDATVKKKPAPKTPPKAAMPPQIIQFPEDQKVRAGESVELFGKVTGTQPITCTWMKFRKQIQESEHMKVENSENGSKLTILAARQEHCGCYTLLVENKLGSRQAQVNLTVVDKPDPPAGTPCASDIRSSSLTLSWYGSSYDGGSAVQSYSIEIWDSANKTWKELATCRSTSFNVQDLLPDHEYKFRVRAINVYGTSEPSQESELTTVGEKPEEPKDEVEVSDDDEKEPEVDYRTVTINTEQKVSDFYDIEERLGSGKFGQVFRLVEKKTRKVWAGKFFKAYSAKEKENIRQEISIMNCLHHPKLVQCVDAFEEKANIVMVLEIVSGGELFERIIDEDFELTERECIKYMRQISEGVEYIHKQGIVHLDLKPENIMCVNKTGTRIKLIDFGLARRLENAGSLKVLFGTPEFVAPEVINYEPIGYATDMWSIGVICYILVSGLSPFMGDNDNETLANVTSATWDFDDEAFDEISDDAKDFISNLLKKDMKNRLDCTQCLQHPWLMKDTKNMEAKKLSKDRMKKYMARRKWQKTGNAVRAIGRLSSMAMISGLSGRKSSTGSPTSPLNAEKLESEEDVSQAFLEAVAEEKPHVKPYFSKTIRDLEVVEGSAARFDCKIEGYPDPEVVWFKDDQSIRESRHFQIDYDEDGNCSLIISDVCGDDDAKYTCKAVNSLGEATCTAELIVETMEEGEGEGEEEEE
reportedEndpoint: IC50

INSERT INTO results (givensmiles, reportedendpoint, endpointvalue) VALUES
  ('CNCc1ccc(-c2[nH]c3cc(F)cc4c3c2CCNC4=O)cc1', 'IC50', '55 µM');
